Every entry's value here was drawn from patent US7118895B2.

Catalogue of Decomposition efficiency of daidzin family in defatted soybean readings, one per entry.
# Tested on: Crude diglycosidase
# experiment.description: Examination of pH in the conversion into isoflavone aglycons by diglycosidase using soybean materials
# Type: biochemical, Penicillium multicolor IAM7153
# Set-up: concentration or dose not given beside the values
# condition.parameters: pH4.8; heat treatment of enzyme: no; reaction time 6 h
endpoint.name: Decomposition efficiency of daidzin family in defatted soybean (%)

{"chemical.structure": "O=C(O)CC(=O)OC[C@H]1O[C@@H](Oc2ccc3c(=O)c(-c4ccc(O)cc4)coc3c2)[C@H](O)[C@@H](O)[C@@H]1O", "readout.number": 30.5}
{"chemical.structure": "O=c1c(-c2ccc(O)cc2)coc2cc(O)ccc12", "readout.number": 69.5}

----------
# Test system: β-Xylosidase derived from pectinase G
# experiment.description: Reactivity toward various isoflavone glycosides (HPLC)
# Type: biochemical
# Parameters: unit not given here
# condition.parameters: Reaction time 1 h; 55 °C, pH 4.0
Catalogue of aglycon readings, one per entry.

{"chemical.structure": "COc1cc2c(=O)c(-c3ccc(O)cc3)coc2cc1O[C@@H]1O[C@H](COC(C)=O)[C@@H](O)[C@H](O)[C@H]1O", "aglycon": 0}
{"chemical.structure": "COc1cc2c(=O)c(-c3ccc(O)cc3)coc2cc1O[C@@H]1O[C@H](COC(=O)CC(=O)O)[C@@H](O)[C@H](O)[C@H]1O", "aglycon": 0}
{"chemical.structure": "O=c1c(-c2ccc(O)cc2)coc2cc(O[C@@H]3O[C@H](CO)[C@@H](O)[C@H](O)[C@H]3O)cc(O)c12", "aglycon": 1.5}

----------
# Test system: Crude diglycosidase
# experiment.description: Examination of substrate concentration in the conversion into isoflavone aglycons by diglycosidase using soybean materials;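 also: percent of the isoflavone family total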
# Format: biochemical, Penicillium multicolor IAM7153
# condition.parameters: roasted soy flour, substrate concentration 10%, heat treatment of enzyme no, reaction time 6 h
endpoint.name: Decomposition efficiency: ratio of each glycoside/aglycon within its isoflavone family

{"chemical.structure": "O=c1c(-c2ccc(O)cc2)coc2cc(O[C@@H]3O[C@H](CO)[C@@H](O)[C@H](O)[C@H]3O)cc(O)c12", "result": "not detected"}
{"chemical.structure": "COc1cc2c(=O)c(-c3ccc(O)cc3)coc2cc1O[C@@H]1O[C@H](COC(=O)CC(=O)O)[C@@H](O)[C@H](O)[C@H]1O", "result": "not detected"}
{"chemical.structure": "O=C(O)CC(=O)OC[C@H]1O[C@@H](Oc2ccc3c(=O)c(-c4ccc(O)cc4)coc3c2)[C@H](O)[C@@H](O)[C@@H]1O", "result": "not detected"}
{"chemical.structure": "COc1cc2c(=O)c(-c3ccc(O)cc3)coc2cc1O[C@@H]1O[C@H](CO)[C@@H](O)[C@H](O)[C@H]1O", "result": "not detected"}
{"chemical.structure": "CC(=O)OC[C@H]1O[C@@H](Oc2ccc3c(=O)c(-c4ccc(O)cc4)coc3c2)[C@H](O)[C@@H](O)[C@@H]1O", "result": "14.9%"}
{"chemical.structure": "COc1cc2c(=O)c(-c3ccc(O)cc3)coc2cc1O", "result": "100.0%"}
{"chemical.structure": "O=C(O)CC(=O)OC[C@H]1O[C@@H](Oc2cc(O)c3c(=O)c(-c4ccc(O)cc4)coc3c2)[C@H](O)[C@@H](O)[C@@H]1O", "result": "not detected"}
{"chemical.structure": "CC(=O)OC[C@H]1O[C@@H](Oc2cc(O)c3c(=O)c(-c4ccc(O)cc4)coc3c2)[C@H](O)[C@@H](O)[C@@H]1O", "result": "18.7%"}
{"chemical.structure": "COc1cc2c(=O)c(-c3ccc(O)cc3)coc2cc1O[C@@H]1O[C@H](COC(C)=O)[C@@H](O)[C@H](O)[C@H]1O", "result": "not detected"}
{"chemical.structure": "O=c1c(-c2ccc(O)cc2)coc2cc(O[C@@H]3O[C@H](CO)[C@@H](O)[C@H](O)[C@H]3O)ccc12", "result": "not detected"}
